# System: 168753-222-R-J1-PDC complex spheroid viability
# measurementDescription: Anticancer human tumor 168753-222-R-J1-PDC patient-derived bladder carcinoma cell line growth inhibition [CLK]; active means viability on the fitted dose curve at most 10% of control; inactive means the rest
# conditionContext: second compound 0.316 µM; first compound 10 µM
In this exercise, the only acceptable responses are active, inactive

Entry COc1cccc2c1C(=O)c1c(O)c3c(c(O)c1C2=O)CC(O)(C(=O)CO)CC3OC1CC(N)C(O)C(C)O1 (stereo not given) + CN1CCN(c2cc(C(=O)Nc3cc4cc(-c5cnn(C)c5)ccc4cn3)ccn2)CC1 : call = ?
active

Entry O=C(c1cc(Cc2n[nH]c(=O)c3ccccc23)ccc1F)N1CCN(C(=O)C2CC2)CC1 + CNC(=O)c1ccc(Nc2nc(OC3CCCC3)c3c(-c4ccc5nc(C)oc5c4)c[nH]c3n2)c(OC)c1 : call = ?
inactive

Entry COC1C=CCC(C)C(C)S(=O)(=O)NC(=O)c2ccc3c(c2)N(CC2CCC21)CC1(CCCc2cc(Cl)ccc21)CO3 (stereo not given) + CNC(=O)c1ccc(Nc2nc(OC3CCCC3)c3c(-c4ccc5nc(C)oc5c4)c[nH]c3n2)c(OC)c1 : call = ?
inactive

Entry Nc1ccccc1NC(=O)c1ccc(CNC(=O)OCc2cccnc2)cc1 + CN1CCN(c2cc(C(=O)Nc3cc4cc(-c5cnn(C)c5)ccc4cn3)ccn2)CC1 : call = ?
active

Entry Nc1ccn(C2OC(CO)C(O)C2(F)F)c(=O)n1 (stereo not given) + CNC(=O)c1ccc(Nc2nc(OC3CCCC3)c3c(-c4ccc5nc(C)oc5c4)c[nH]c3n2)c(OC)c1 : call = ?
inactive

* * *

For each entry below, report its viability, T/C value.
# Test system: 168753-222-R-J1-PDC complex spheroid viability
# measurementDescription: Anticancer human tumor 168753-222-R-J1-PDC cell line growth inhibition [CLK];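 further: luminescence signal used as surrogate for viable cell amount; viability measured after seven days of drug exposure; 100% = DMSO vehicle control wells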
# conditionContext: second compound 1 µM; first compound 1 µM; hits give low values
Answer format: numeric, % implied, no suffix.

Give its viability, T/C value. Item: CCc1c2c(nc3ccc(O)cc13)-c1cc3c(c(=O)n1C2)COC(=O)[C@]3(O)CC + CNC(=O)c1ccc(Nc2nc(OC3CCCC3)c3c(-c4ccc5nc(C)oc5c4)c[nH]c3n2)c(OC)c1
11.5

Give its viability, T/C value. Item: O=C(c1cc(Cc2n[nH]c(=O)c3ccccc23)ccc1F)N1CCN(C(=O)C2CC2)CC1 + CNC(=O)c1ccc(Nc2nc(OC3CCCC3)c3c(-c4ccc5nc(C)oc5c4)c[nH]c3n2)c(OC)c1
39.7

Give its viability, T/C value. Item: CC(Nc1ccc2c(c1)OCCn1cc(N3C(=O)OCC3C(F)F)nc1-2)C(N)=O (stereo unspecified) + CNC(=O)c1ccc(Nc2nc(OC3CCCC3)c3c(-c4ccc5nc(C)oc5c4)c[nH]c3n2)c(OC)c1
2.64

Give its viability, T/C value. Item: COc1ccc([C@@H](O)c2cc(-c3ncnc4cc(N5CCOCC5)ccc34)c(F)cc2Cl)nn1 + CN1CCN(c2cc(C(=O)Nc3cc4cc(-c5cnn(C)c5)ccc4cn3)ccn2)CC1
0.07

Give its viability, T/C value. Item: CC1(C)CCC(CN2CCN(c3ccc(C(=O)NS(=O)(=O)c4ccc(NCC5CCOCC5)c([N+](=O)[O-])c4)c(Oc4cnc5[nH]ccc5c4)c3)CC2)=C(c2ccc(Cl)cc2)C1 + CN1CCN(c2cc(C(=O)Nc3cc4cc(-c5cnn(C)c5)ccc4cn3)ccn2)CC1
0.22

Give its viability, T/C value. Item: C=C(F)C(=O)N1CCN(c2nc(OCC3CCCN3C)nc3c2CCN(c2cccc4cccc(Cl)c24)C3)CC1CC#N (stereo unspecified) + CN1CCN(c2cc(C(=O)Nc3cc4cc(-c5cnn(C)c5)ccc4cn3)ccn2)CC1
0.16

Give its viability, T/C value. Item: Nc1ccn(C2OC(CO)C(O)C2(F)F)c(=O)n1 (stereo unspecified) + CN1CCN(c2cc(C(=O)Nc3cc4cc(-c5cnn(C)c5)ccc4cn3)ccn2)CC1
0.12

Give its viability, T/C value. Item: CC(Nc1ccc2c(c1)OCCn1cc(N3C(=O)OCC3C(F)F)nc1-2)C(N)=O (stereo unspecified) + CN1CCN(c2cc(C(=O)Nc3cc4cc(-c5cnn(C)c5)ccc4cn3)ccn2)CC1
0.05

Give its viability, T/C value. Item: COc1cccc2c1C(=O)c1c(O)c3c(c(O)c1C2=O)CC(O)(C(=O)CO)CC3OC1CC(N)C(O)C(C)O1 (stereo unspecified) + CNC(=O)c1ccc(Nc2nc(OC3CCCC3)c3c(-c4ccc5nc(C)oc5c4)c[nH]c3n2)c(OC)c1
14.1

Give its viability, T/C value. Item: O=c1[nH]cc(F)c(=O)[nH]1 + CNC(=O)c1ccc(Nc2nc(OC3CCCC3)c3c(-c4ccc5nc(C)oc5c4)c[nH]c3n2)c(OC)c1
28.2

Give its viability, T/C value. Item: CCN1CCN(Cc2ccc(Nc3ncc(F)c(-c4cc(F)c5nc(C)n(C(C)C)c5c4)n3)nc2)CC1 + CN1CCN(c2cc(C(=O)Nc3cc4cc(-c5cnn(C)c5)ccc4cn3)ccn2)CC1
0.34
